species on record: Rattus norvegicus; experiment: Open TG-GATES - Regimen: Daily Repeat; assay type: toxicity, organism-based, Sprague-Dawley; design: regimen Daily Repeat, gender Male, age 6 weeks; details: in vivo, po, 0 mg/kg, […], tissue Plasma, route gavage, dose level Control, time 14 day
METRIC: K

Name the reported K value associated with the compound "CC1=C(/C=C/C(C)=C/C=C/C(C)=C/CO)C(C)(C)CCC1"
4.2 meq/L

# repeat for "COC1=CC(=O)C[C@@H](C)[C@]12Oc1c(Cl)c(OC)cc(OC)c1C2=O"
4.2 meq/L

# repeat for CCCNC(=O)NS(=O)(=O)c1ccc(Cl)cc1 [CHLORPROPAMIDE]
4.1 meq/L

# repeat for COc1ccc2[nH]c([S+]([O-])Cc3ncc(C)c(OC)c3C)nc2c1 (stereo not given)
3.4 meq/L

# repeat for "O=C(CCCN1CCC(O)(c2ccc(Cl)cc2)CC1)c1ccc(F)cc1"
4.8 meq/L

* * *

organism: Rattus norvegicus; test: Open TG-GATES - Regimen: Daily Repeat; assay type: toxicity, organism-based, Sprague-Dawley; set-up: regimen Daily Repeat, gender Male, age 6 weeks; settings: in vivo, po, 1000 mg/kg, […], tissue Plasma, route gavage, dose level High, time 14 day
Hi there, I'd appreciate the recorded CRE for every entry that follows.
Record the value in mg/dL, omitting the unit from your answer.

Name the reported CRE value associated with the molecule "COC1=CC(=O)C[C@@H](C)[C@]12Oc1c(Cl)c(OC)cc(OC)c1C2=O"
0.5

# repeat for "NC(N)=Nc1nc(CSCCC(N)=NS(N)(=O)=O)cs1"
0.5

# repeat for CCOC(=O)CCC(=O)O[C@H]1[C@H](O[C@@H]2[C@@H](C)[C@H](O[C@H]3C[C@@](C)(OC)[C@@H](O)[C@H](C)O3)[C@@H](C)C(=O)O[C@H](CC)[C@@](C)(O)[C@H](O)[C@@H](C)C(=O)[C@H](C)C[C@@]2(C)O)O[C@H](C)C[C@@H]1N(C)C [ERYTHROMYCIN ETHYLSUCCINATE]
0.2

# repeat for CCOc1ccc(NC(=O)CC(C)O)cc1 (stereo unspecified)
0.2

# repeat for CC(C)OC(=O)C(C)(C)Oc1ccc(C(=O)c2ccc(Cl)cc2)cc1 [FENOFIBRATE]
0.2

# repeat for COc1ccc2[nH]c([S+]([O-])Cc3ncc(C)c(OC)c3C)nc2c1 (stereo unspecified)
0.5

* * *

species on record: Rattus norvegicus; experiment: Open TG-GATES - Regimen: Single; type: toxicity, organism-based, Sprague-Dawley; design: regimen Single, gender Male, age 6 weeks; conditions: in vivo, po, 300 mg/kg, 24 h, tissue Plasma, route gavage, dose level Middle
METRIC: IP (mg/dL)
Record the value in mg/dL, omitting the unit from your answer.

Name the reported IP value associated with the molecule "NC(N)=Nc1nc(CSCCC(N)=NS(N)(=O)=O)cs1"
8

# repeat for CCOC(=O)CCC(=O)O[C@H]1[C@H](O[C@@H]2[C@@H](C)[C@H](O[C@H]3C[C@@](C)(OC)[C@@H](O)[C@H](C)O3)[C@@H](C)C(=O)O[C@H](CC)[C@@](C)(O)[C@H](O)[C@@H](C)C(=O)[C@H](C)C[C@@]2(C)O)O[C@H](C)C[C@@H]1N(C)C [ERYTHROMYCIN ETHYLSUCCINATE]
8.1

# repeat for "COC1=CC(=O)C[C@@H](C)[C@]12Oc1c(Cl)c(OC)cc(OC)c1C2=O"
8.1

# repeat for COc1ccc2[nH]c([S+]([O-])Cc3ncc(C)c(OC)c3C)nc2c1 (centres undefined)
9.4

* * *

species on record: Rattus norvegicus; assay: Open TG-GATES - Regimen: Daily Repeat; format: toxicity, organism-based, Sprague-Dawley; design: regimen Daily Repeat, gender Male, age 6 weeks; conditions: in vivo, po, 0 mg/kg, […], tissue Plasma, route gavage, dose level Control, time 28 day
METRIC: Cl (meq/L)
Record the value in meq/L, omitting the unit from your answer.

Name the reported Cl value associated with the molecule "NNC(=O)c1ccncc1"
104.6

# repeat for "O=C(CCCN1CCC(O)(c2ccc(Cl)cc2)CC1)c1ccc(F)cc1"
105

# repeat for CCOc1ccc(NC(=O)CC(C)O)cc1 (stereo not given)
105.8

# repeat for CCCNC(=O)NS(=O)(=O)c1ccc(Cl)cc1 [CHLORPROPAMIDE]
105.6

# repeat for COc1ccc2[nH]c([S+]([O-])Cc3ncc(C)c(OC)c3C)nc2c1 (stereo not given)
102.6

# repeat for "COC1=CC(=O)C[C@@H](C)[C@]12Oc1c(Cl)c(OC)cc(OC)c1C2=O"
102.8

# repeat for "CN(C)CCN(Cc1cccs1)c1ccccn1"
107.8

# repeat for "NC(N)=Nc1nc(CSCCC(N)=NS(N)(=O)=O)cs1"
103.6

# repeat for CCOC(=O)CCC(=O)O[C@H]1[C@H](O[C@@H]2[C@@H](C)[C@H](O[C@H]3C[C@@](C)(OC)[C@@H](O)[C@H](C)O3)[C@@H](C)C(=O)O[C@H](CC)[C@@](C)(O)[C@H](O)[C@@H](C)C(=O)[C@H](C)C[C@@]2(C)O)O[C@H](C)C[C@@H]1N(C)C [ERYTHROMYCIN ETHYLSUCCINATE]
106.6

# repeat for "CC1=C(/C=C/C(C)=C/C=C/C(C)=C/CO)C(C)(C)CCC1"
106

* * *

species: Rattus norvegicus; assay: Open TG-GATES - Regimen: Single; type: toxicity, organism-based, Sprague-Dawley; parameters: regimen Single, gender Male, age 6 weeks; details: in vivo, po, 100 mg/kg, 6 h, tissue Plasma, route gavage, dose level High
METRIC: ALT (IU/L)
Record the value in IU/L, omitting the unit from your answer.

Name the reported ALT value associated with the molecule "CN(C)CCN(Cc1cccs1)c1ccccn1"
51.2

# repeat for CC1=C(/C=C/C(C)=C/C=C/C(C)=C/CO)C(C)(C)CCC1 [RETINOL]
37.6

# repeat for CN(C)CCCN1c2ccccc2CCc2ccc(Cl)cc21 [CLOMIPRAMINE]
40.6

# repeat for CN(C)CCCN1c2ccccc2CCc2ccccc21 [IMIPRAMINE]
37

* * *

Hi there, I'd appreciate the recorded PL for every entry that follows.
species on record: Rattus norvegicus; assay: Open TG-GATES - Regimen: Daily Repeat; format: toxicity, organism-based, Sprague-Dawley; design: regimen Daily Repeat, gender Male, age 6 weeks; details: in vivo, po, 1000 mg/kg, […], tissue Plasma, route gavage, dose level High, time 7 day
Record the value in mg/dL, omitting the unit from your answer.

Name the reported PL value associated with the compound "COC1=CC(=O)C[C@@H](C)[C@]12Oc1c(Cl)c(OC)cc(OC)c1C2=O"
126.8

# repeat for COc1ccc2[nH]c([S+]([O-])Cc3ncc(C)c(OC)c3C)nc2c1 (stereo unspecified)
200.8

# repeat for CCOC(=O)CCC(=O)O[C@H]1[C@H](O[C@@H]2[C@@H](C)[C@H](O[C@H]3C[C@@](C)(OC)[C@@H](O)[C@H](C)O3)[C@@H](C)C(=O)O[C@H](CC)[C@@](C)(O)[C@H](O)[C@@H](C)C(=O)[C@H](C)C[C@@]2(C)O)O[C@H](C)C[C@@H]1N(C)C [ERYTHROMYCIN ETHYLSUCCINATE]
155

# repeat for CCOc1ccc(NC(=O)CC(C)O)cc1 (stereo unspecified)
162.8

# repeat for CC(C)OC(=O)C(C)(C)Oc1ccc(C(=O)c2ccc(Cl)cc2)cc1 [FENOFIBRATE]
142

# repeat for "NC(N)=Nc1nc(CSCCC(N)=NS(N)(=O)=O)cs1"
147.6

* * *

species: Rattus norvegicus; assay: Open TG-GATES - Regimen: Single; assay type: toxicity, organism-based, Sprague-Dawley; set-up: regimen Single, gender Male, age 6 weeks; settings: in vivo, po, 0 mg/kg, 24 h, tissue Kidney, route gavage, dose level Control
Hi there, I'd appreciate the recorded KIDNEY_L for every entry that follows.
Record the value in g, omitting the unit from your answer.

Name the reported KIDNEY_L value associated with the compound "CN(C)CCN(Cc1cccs1)c1ccccn1"
0.9

# repeat for CN1C(=O)CN=C(c2ccccc2)c2cc(Cl)ccc21 [DIAZEPAM]
1.1

# repeat for CCCNC(=O)NS(=O)(=O)c1ccc(Cl)cc1 [CHLORPROPAMIDE]
0.9

# repeat for COc1cc2c(c(OC)c1OC)-c1ccc(OC)c(=O)cc1[C@@H](NC(C)=O)CC2 [COLCHICINE]
1.1

# repeat for COc1ccc2[nH]c([S+]([O-])Cc3ncc(C)c(OC)c3C)nc2c1 (stereo not given) [OMEPRAZOLE]
1

* * *

species: Rattus norvegicus; experiment: Open TG-GATES - Regimen: Single; assay type: toxicity, organism-based, Sprague-Dawley; parameters: regimen Single, gender Male, age 6 weeks; conditions: in vivo, po, 30 mg/kg, 9 h, tissue Plasma, route gavage, dose level Middle
METRIC: BUN (mg/dL)
Record the value in mg/dL, omitting the unit from your answer.

Name the reported BUN value associated with the compound "CN(C)CCCN1c2ccccc2CCc2ccc(Cl)cc21"
7.4

# repeat for "CC1=C(/C=C/C(C)=C/C=C/C(C)=C/CO)C(C)(C)CCC1"
10

# repeat for "CN(C)CCCN1c2ccccc2CCc2ccccc21"
5.8

# repeat for "CN(C)CCN(Cc1cccs1)c1ccccn1"
11.2
